meta.source: patent US7759345B2

- Test system: Kidney
Entries and their measured Toxicity Data Kidney follow.
# print the numeric value only

// worked examples, Toxicity Data Kidney included
Input line: Form entry - test system: Kidney; read-out: Toxicity Data Kidney; compound: COc1cc2c(cc1OC(=O)OCc1ccccc1)CCN[C@]21CS[C@@H]2c3c(OC(C)=O)c(C)c4c(c3[C@H](COC1=O)N1C2[C@H]2c3c(cc(C)c(OC)c3O)C[C@@H]([C@@H]1O)N2C)OCO4 (stereo partly drawn) [Compound 65]
Output line: 3.15E-09

Input line: Form entry - test system: Kidney; read-out: Toxicity Data Kidney; compound: COc1cc2c(cc1OC(=O)[C@H](C)NC(=O)OC(C)(C)C)CCN[C@]21CS[C@@H]2c3c(OC(C)=O)c(C)c4c(c3[C@H](COC1=O)N1C2[C@H]2c3c(cc(C)c(OC)c3O)C[C@@H]([C@@H]1O)N2C)OCO4 (stereo partly drawn) [Compound 79]
Output line: 1.74E-08

Input line: Form entry - test system: Kidney; read-out: Toxicity Data Kidney; compound: COc1cc2c(cc1OC)[C@@]1(CS[C@@H]3c4c(OC(C)=O)c(C)c5c(c4[C@H](COC1=O)N1C3[C@H]3c4c(cc(C)c(OC)c4OC)C[C@@H]([C@@H]1O)N3C)OCO5)NCC2 (stereo partly drawn) [Compound 87]
Output line: 8.09E-08

Input line: Form entry - test system: Kidney; read-out: Toxicity Data Kidney; compound: COc1cc2c(cc1O)CCN[C@]21CS[C@@H]2c3c(OC(C)=O)c(C)c4c(c3[C@H](COC1=O)N1C2[C@H]2c3c(cc(C)c(OC)c3OC(=O)OC(C)(C)C)C[C@@H]([C@@H]1O)N2C)OCO4 (stereo partly drawn) [Compound 97]
Output line: 1.43E-08

Input line: Form entry - test system: Kidney; read-out: Toxicity Data Kidney; compound: C=COC(=O)Oc1c(C)c2c(c3c1[C@H]1SC[C@]4(NCCc5cc(OC(=O)OC(C)(C)C)c(OC)cc54)C(=O)OC[C@@H]3N3C1[C@H]1c4c(cc(C)c(OC)c4O)C[C@@H]([C@@H]3O)N1C)OCO2 (stereo partly drawn) [Compound 176]
Output line: 2.80E-09

Continuing:
Input line: Form entry - test system: Kidney; read-out: Toxicity Data Kidney; compound: C=CCOc1cc2c(cc1OC)[C@@]1(CS[C@@H]3c4c(OC(C)=O)c(C)c5c(c4[C@H](COC1=O)N1C3[C@H]3c4c(cc(C)c(OC)c4O)C[C@@H]([C@@H]1O)N3C)OCO5)NCC2 (stereo partly drawn) [Compound 70]
Output line: 1.07E-07

Input line: Form entry - test system: Kidney; read-out: Toxicity Data Kidney; compound: COC1=C(C)C(=O)C2=C(C1=O)[C@@H]1C3[C@@H]4SC[C@]5(NCCc6cc(O)c(OC)cc65)C(=O)OC[C@@H](c5c6c(c(C)c(OC(C)=O)c54)OCO6)N3[C@@H](O)[C@H](C2)N1C (stereo partly drawn) [Compound 101]
Output line: 3.17E-08

Input line: Form entry - test system: Kidney; read-out: Toxicity Data Kidney; compound: CCCCCCCC(=O)Oc1cc2c(cc1OC)[C@@]1(CS[C@@H]3c4c(OC(C)=O)c(C)c5c(c4[C@H](COC1=O)N1C3[C@@H]3N[C@@H](Cc4cc(C)c(OC)c(O)c43)[C@@H]1O)OCO5)NCC2 (stereo partly drawn) [Compound 213]
Output line: 1.48E-08

----------
- Test system: K-562
- procedureDetails: Inhibition of cells growth by colorimetric assay (SRB), K-562
- Assay type: cell-based
- testSettings: K-562; SRB, 48 hours exposure
Entries and their measured K-562 TGI follow.
# print the numeric value only

Input line: Value lookup for K-562 TGI; key = COc1cc2c(cc1OC(=O)Cc1cc(=O)oc3cc(N(C)C)ccc13)CCN[C@]21CS[C@@H]2c3c(OC(C)=O)c(C)c4c(c3[C@H](COC1=O)N1C2[C@H]2c3c(cc(C)c(OC)c3OC(=O)Cc3cc(=O)oc5cc(N(C)C)ccc35)C[C@@H]([C@@H]1O)N2C)OCO4 (stereo partly drawn) [Compound 78]
Output line: 2.56E-09

Input line: Value lookup for K-562 TGI; key = COc1cc2c(cc1O)CCN[C@]21CS[C@@H]2c3c(OC(C)=O)c(C)c4c(c3[C@H](COC1=O)N1C2[C@H]2c3c(cc(C)c(OC)c3OC(C)C)C[C@@H]([C@@H]1O)N2C)OCO4 (stereo partly drawn) [Compound 102]
Output line: 4.35E-08

Input line: Value lookup for K-562 TGI; key = COc1cc2c(cc1OC(=O)Cc1cc(=O)oc3cc(N(C)C)ccc13)CCN[C@]21CS[C@@H]2c3c(OC(C)=O)c(C)c4c(c3[C@H](COC1=O)N1C2[C@H]2c3c(cc(C)c(OC)c3OC(=O)Cc3cc(=O)oc5cc(N(C)C)ccc35)C[C@@H]([C@@H]1O)N2C)OCO4 (stereo partly drawn) [Compound 77]
Output line: 7.77E-10

----------
- System: SK-BR-3
- procedureDetails: Inhibition of cells growth by colorimetric assay (SRB), SK-BR-3
- Format: cell-based
- testSettings: Homo sapiens, SK-BR-3, 48 h, read-out: SK-BR3 LC50, SRB assay, 48 hours exposure
measurementName: CC50 (nM)
Express your answer in nM, writing the number without its unit.

// worked examples, CC50 included
Input line: Value lookup for CC50; key = COc1cc2c(cc1O)CCN[C@]21CS[C@@H]2c3c(OC(=O)CCCCC4SCC5NC(=O)NC54)c(C)c4c(c3[C@H](COC1=O)N1C2[C@H]2c3c(cc(C)c(OC)c3O)C[C@@H]([C@@H]1O)N2C)OCO4 (stereo partly drawn)
Output line: 37.5

Input line: Value lookup for CC50; key = COc1cc2c(cc1O)CCN[C@]21CS[C@@H]2c3c(OC(=O)CCCCC4SCC5NC(=O)NC54)c(C)c4c(c3[C@H](COC1=O)N1C2[C@H]2c3c(cc(C)c(OC)c3OC(=O)CCCCC3SCC5NC(=O)NC53)C[C@@H]([C@@H]1O)N2C)OCO4 (stereo partly drawn)
Output line: 785

Input line: Value lookup for CC50; key = C=COC(=O)Oc1c(C)c2c(c3c1[C@H]1SC[C@]4(NCCc5cc(OC(=O)OC(C)(C)C)c(OC)cc54)C(=O)OC[C@@H]3N3C1[C@H]1c4c(cc(C)c(OC)c4O)C[C@@H]([C@@H]3O)N1C)OCO2 (stereo partly drawn)
Output line: 40.6

Input line: Value lookup for CC50; key = COc1cc2c(cc1OC(=O)OC(C)(C)C)CCN[C@]21CS[C@@H]2c3c(OC(=O)[C@H](C)NC(=O)OC(C)(C)C)c(C)c4c(c3[C@H](COC1=O)N1C2[C@H]2c3c(cc(C)c(OC)c3O)C[C@@H]([C@@H]1O)N2C)OCO4 (stereo partly drawn)
Output line: 13.2

Input line: Value lookup for CC50; key = COc1cc2c(cc1O)CCN[C@]21CS[C@@H]2c3c(O)c(C)c4c(c3[C@H](COC1=O)N1C2[C@H]2c3c(cc(C)c(OC)c3O)C[C@@H]([C@@H]1O)N2C)OCO4 (stereo partly drawn)
Output line: 27.5

Now consider the entry below.
Input line: Value lookup for CC50; key = COc1cc2c(cc1O)CCN[C@]21CS[C@@H]2c3c(OC(=O)C(F)(F)C(F)(F)C(F)(F)F)c(C)c4c(c3[C@H](COC1=O)N1C2[C@H]2c3c(cc(C)c(OC)c3O)C[C@@H]([C@@H]1O)N2C)OCO4 (stereo partly drawn)
Output line: 238

----------
- Test system: IGROV-ET
- procedureDetails: Inhibition of cells growth by colorimetric assay (SRB), IGROV-ET
- Format: cell-based
- testSettings: IGROV-ET; SRB, 48 hours exposure
- Description: 2°.—Inhibition of Cells Growth by Colorimetric Assay. A colorimetric type of assay, using sulforhodamine B (SRB) reaction has been adapted for a quantitative measurement of cell growth and viability [following the technique described by Philip Skehan, et al. (1990), New colorimetric cytotoxicity assay for anticancer drug screening, J. Natl. Cancer Inst., 82:1107-1112] […] The values for mean+/−SD of data from triplicate wells are calculated. […]
measurementName: TGI IGROV-ET
# print the numeric value only

// worked examples, TGI IGROV-ET included
Input line: Value lookup for TGI IGROV-ET; key = C=COC(=O)Oc1cc2c(cc1OC)[C@@]1(CS[C@@H]3c4c(OC(C)=O)c(C)c5c(c4[C@H](COC1=O)N1C3[C@H]3c4c(cc(C)c(OC)c4O)C[C@@H]([C@@H]1O)N3C)OCO5)NCC2 (some centres unmarked)
Output line: 6.58E-09

Input line: Value lookup for TGI IGROV-ET; key = COc1cc2c(cc1OC)[C@@]1(CS[C@@H]3c4c(OC(C)=O)c(C)c5c(c4[C@H](COC1=O)N1C3[C@H]3c4c(cc(C)c(OC)c4O)C[C@@H]([C@@H]1O)N3C)OCO5)NCC2 (some centres unmarked)
Output line: 7.02E-09

Input line: Value lookup for TGI IGROV-ET; key = COc1cc2c(cc1OC(=O)c1cc3ccccc3oc1=O)CCN[C@]21CS[C@@H]2c3c(OC(C)=O)c(C)c4c(c3[C@H](COC1=O)N1C2[C@H]2c3c(cc(C)c(OC)c3O)C[C@@H]([C@@H]1O)N2C)OCO4 (some centres unmarked)
Output line: 3.92E-09

Input line: Value lookup for TGI IGROV-ET; key = COc1cc2c(cc1O)CCN[C@]21CS[C@@H]2c3c(OC(C)=O)c(C)c4c(c3[C@H](COC1=O)N1C2[C@H]2c3c(cc(C)c(OC)c3OC(C)C)C[C@@H]([C@@H]1C#N)N2C)OCO4 (some centres unmarked)
Output line: 2.93E-06

Continuing:
Input line: Value lookup for TGI IGROV-ET; key = COc1cc2c(cc1OC(=O)C(F)(F)C(F)(F)C(F)(F)F)CCN[C@]21CS[C@@H]2c3c(OC(C)=O)c(C)c4c(c3[C@H](COC1=O)N1C2[C@H]2c3c(cc(C)c(OC)c3O)C[C@@H]([C@@H]1O)N2C)OCO4 (some centres unmarked)
Output line: 4.69E-09
